- tested.system: T1, mouse TNFR1 (recombinant, R&D Systems cat no. 425-R1-050/CF, biotinylated) (mouse, UniProt P25118 22-212, biotinylated with EZ-Link NHS-LC-LC-biotin)
- T1 construct: also called murine TNFR1; biotinylated mouse TNFR1
- T1 sequence (looked up): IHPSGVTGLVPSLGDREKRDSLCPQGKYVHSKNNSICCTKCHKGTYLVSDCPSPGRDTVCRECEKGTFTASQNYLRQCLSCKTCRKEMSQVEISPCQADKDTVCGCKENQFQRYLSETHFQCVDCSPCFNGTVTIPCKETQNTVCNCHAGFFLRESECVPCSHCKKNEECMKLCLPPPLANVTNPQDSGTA
- assay.details: BIAcore, mouse TNFR1 on SA chip
property.name: kon (M⁻¹ s⁻¹)
All answers are understood in M⁻¹ s⁻¹, so give the number only.

(Q) Report measured kon; entry is DOM1h-574-135 (other, VH dAb) VH: EVQLLESGGGLVQPGGSLRLSCAASGFTFVKYSMGWVRQAPGKGLEWVSQISDTADRTYYTHSVKGRFTISRDNSKNTLYLQMNSLRAEDTAVYYCAIYTGRWVPFEYWGQGTLVTVSS
(A) 110000

(Q) Return value of kon for input DOM1h-574-155 (other, VH dAb) VH: EVQLLESGGGLVQPGGSLRLSCAASGFTFLKYSMGWVRQAPGKGLEWVSQISDTADRTYYAHSVKGRFTISRDNSKNTLYLQMNSLRAEDTAVYYCAIYTGRWVPFEYWGQGTLVTVSS , no commentary.
(A) 110000

(Q) Answer with reported kon of DOM1h-574-139 (other, VH dAb) VH: EVQLLESGGGLVQPGGSLRLSCAASGFTFLKYSMGWVRQAPGKGLEWVSQISDTADRTYYAHSVKGRFTISRDNSKNTLYLQMNSLRAEDTAVYYCAIYTGRWAPFEYWGQGTLVTVSS
(A) 70000

(Q) Check the records and state kon for DOM1h-574-133 (other, VH dAb) VH: EVQLLESGGGLVQPGGSLRLSCAASGFTFVKYSMGWVRQAPGKGLEWVSQISDTADRTYYDHSVKGRFTISRDNSKNTLYLQMNSLRAEDTAVYYCAIYTGRWEPFVYWGQGTLVTVSS
(A) 140000
